- Assay: Metabolic stability in rat liver microsomes assessed as compound remaining after 30 mins
- Assay type: ADME, Microsome
- Experimental context: read-out: Stability
Recorded remaining at 0.5 h for the following molecules
Quantity: remaining at 0.5 h

{"columns": ["Chem smiles", "Measurement"],
 "data": [
  ["CCOC(=O)c1cc(-c2ccc(Br)cc2)n(-c2ccc(S(N)(=O)=O)cc2)c1C", "2%"],
  ["CCCN(CCO)C(=O)c1cc(-c2ccc(Cl)cc2)n(-c2ccc(S(N)(=O)=O)cc2)c1C", "58%"],
  ["Cc1c(C(=O)C2CC2)cc(-c2ccc(Cl)cc2)n1-c1ccc(S(N)(=O)=O)cc1", "92%"],
  ["COc1ccc(F)cc1C(=O)c1cc(-c2ccc(Cl)cc2)n(-c2ccc(S(N)(=O)=O)cc2)c1C", "45%"],
  ["Cc1c(C(=O)CC(C)C)cc(-c2ccc(Cl)cc2)n1-c1ccc(S(N)(=O)=O)cc1", "44%"]
]}

----------
- Assay: Half life in monkey at 0.5 umol/kg, iv
- Format: ADME, organism-based, Macaca mulatta
- Experimental context: rhesus monkey, in vivo

{"columns": ["Chem smiles", "half-life, h"],
 "data": [
  ["CCC(=O)c1cc(-c2ccc(Cl)cc2)n(-c2ccc(S(N)(=O)=O)cc2)c1C", 1]
]}

----------
- Assay: Cmax in monkey at 1 umol/kg, po
- Assay type: ADME, organism-based, Macaca mulatta
- Design: dose 1 umol/kg, route oral
- Experimental context: rhesus monkey, in vivo

{"columns": ["Chem smiles", "Cmax / ng/mL"],
 "data": [
  ["CCC(=O)c1cc(-c2ccc(Cl)cc2)n(-c2ccc(S(N)(=O)=O)cc2)c1C", 17]
]}

----------
- Assay: Cmax in dog at 1 umol/kg, po
- Assay type: ADME, organism-based, Canis lupus familiaris
- Design: dose 1 umol/kg, route oral
- Experimental context: in vivo

{"columns": ["Chem smiles", "Cmax (ng/mL)"],
 "data": [
  ["CCC(=O)c1cc(-c2ccc(Cl)cc2)n(-c2ccc(S(N)(=O)=O)cc2)c1C", 87]
]}

----------
Recorded remaining at 0.5 h for the following molecules
- Assay: Metabolic stability in rat liver microsomes assessed as compound remaining after 30 mins
- Type: ADME, Microsome
- Experimental context: read-out: Stability
Quantity: remaining at 0.5 h (%)

{"columns": ["Chem smiles", "Quantity", "U", "Measurement"],
 "data": [
  ["CCC(=O)c1cc(-c2ccc(Cl)cc2)n(-c2ccc(S(N)(=O)=O)cc2)c1C", "remaining at 0.5 h", "%", 96],
  ["Cc1cc(C(=O)c2cc(-c3ccc(Cl)cc3)n(-c3ccc(S(N)(=O)=O)cc3)c2C)ccc1Cl", "remaining at 0.5 h", "%", 38],
  ["CCOC(=O)c1cc(-c2ccc(Cl)cc2)n(-c2ccc(S(N)(=O)=O)cc2)c1C", "remaining at 0.5 h", "%", 3],
  ["CC(=O)c1cc(-c2ccc(Cl)cc2)n(-c2ccc(S(N)(=O)=O)cc2)c1C", "remaining at 0.5 h", "%", 64],
  ["Cc1c(C(=O)N2CCCC2)cc(-c2ccc(Cl)cc2)n1-c1ccc(S(N)(=O)=O)cc1", "remaining at 0.5 h", "%", 31]
]}

----------
- Assay: Half life in rat at 2 umol/kg, iv
- Format: ADME, organism-based
- Experimental context: in vivo

{"columns": ["Chem smiles", "U", "half-life"],
 "data": [
  ["CCC(=O)c1cc(-c2ccc(Cl)cc2)n(-c2ccc(S(N)(=O)=O)cc2)c1C", "h", 1.7]
]}

----------
- Assay: Volume of distribution at steady state in dog at 0.5 umol/kg, iv
- Type: ADME, organism-based, Canis lupus familiaris
- Experimental context: in vivo, read-out: Vdss

{"columns": ["Chem smiles", "Vd / L/kg"],
 "data": [
  ["CCC(=O)c1cc(-c2ccc(Cl)cc2)n(-c2ccc(S(N)(=O)=O)cc2)c1C", 1.7]
]}

----------
- Test system: Neuronal acetylcholine receptor subunit alpha-7 (Homo sapiens, UniProt P36544)
- Sequence (P36544 whole entry): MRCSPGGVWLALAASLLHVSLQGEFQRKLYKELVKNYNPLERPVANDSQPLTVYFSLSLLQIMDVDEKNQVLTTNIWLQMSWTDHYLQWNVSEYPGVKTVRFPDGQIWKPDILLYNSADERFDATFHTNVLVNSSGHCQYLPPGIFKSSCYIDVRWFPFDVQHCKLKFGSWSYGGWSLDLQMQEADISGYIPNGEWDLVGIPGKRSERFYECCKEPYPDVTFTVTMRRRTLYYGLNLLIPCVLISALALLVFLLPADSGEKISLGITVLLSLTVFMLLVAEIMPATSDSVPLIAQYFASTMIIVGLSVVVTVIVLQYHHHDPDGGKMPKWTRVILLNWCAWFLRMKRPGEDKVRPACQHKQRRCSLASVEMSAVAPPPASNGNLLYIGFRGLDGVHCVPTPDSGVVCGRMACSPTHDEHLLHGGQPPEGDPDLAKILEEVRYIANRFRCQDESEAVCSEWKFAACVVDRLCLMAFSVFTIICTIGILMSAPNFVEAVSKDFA
- Assay: Allosteric modulator activity at alpha7 nAChR in human IMR32 cells assessed as stimulation of agonist-induced intracellular calcium level by FLIPR assay
pEC50: −log10 of the molar value.
Recorded pEC50 for the following molecules
Quantity: pEC50

{"columns": ["Chem smiles", "Quantity", "Value operator", "Measurement"],
 "data": [
  ["Cc1c(C(=O)CC(C)C)cc(-c2ccc(Cl)cc2)n1-c1ccc(S(N)(=O)=O)cc1", "pEC50", "=", 5.41],
  ["Cc1c(C(=O)N(C)C(C)C)cc(-c2ccc(Cl)cc2)n1-c1ccc(S(N)(=O)=O)cc1", "pEC50", "<", 4.52],
  ["Cc1c(C(=O)N2CCCC2)cc(-c2ccc(Cl)cc2)n1-c1ccc(S(N)(=O)=O)cc1", "pEC50", "=", 5.03],
  ["Cc1c(C(=O)N2CCOCC2)cc(-c2ccc(Cl)cc2)n1-c1ccc(S(N)(=O)=O)cc1", "pEC50", "<", 4.52],
  ["CCCN(CCO)C(=O)c1cc(-c2ccc(Cl)cc2)n(-c2ccc(S(N)(=O)=O)cc2)c1C", "pEC50", "=", 5.44],
  ["Cc1ccc(C(=O)c2cc(-c3ccc(Cl)cc3)n(-c3ccc(S(N)(=O)=O)cc3)c2C)cc1", "pEC50", "<", 4.52],
  ["Cc1c(C(=O)N2CCCCC2)cc(-c2ccc(Cl)cc2)n1-c1ccc(S(N)(=O)=O)cc1", "pEC50", "<", 4.52],
  ["CCOC(=O)c1cc(-c2ccc(Br)cc2)n(-c2ccc(S(N)(=O)=O)cc2)c1C", "pEC50", "=", 5.59],
  ["COc1ccc(F)cc1C(=O)c1cc(-c2ccc(Cl)cc2)n(-c2ccc(S(N)(=O)=O)cc2)c1C", "pEC50", "=", 4.98],
  ["Cc1c(C(=O)c2ccc(Cl)cc2)cc(-c2ccc(Cl)cc2)n1-c1ccc(S(N)(=O)=O)cc1", "pEC50", "<", 4.52],
  ["Cc1c(C(=O)N(C)C)cc(-c2ccc(Cl)cc2)n1-c1ccc(S(N)(=O)=O)cc1", "pEC50", "<", 4.52],
  ["Cc1c(C(=O)O)cc(-c2ccc(Cl)cc2)n1-c1ccc(S(N)(=O)=O)cc1", "pEC50", "<", 4.52],
  ["Cc1cc(C(=O)c2cc(-c3ccc(Cl)cc3)n(-c3ccc(S(N)(=O)=O)cc3)c2C)ccc1Cl", "pEC50", "=", 5.31],
  ["CCN(C)C(=O)c1cc(-c2ccc(Cl)cc2)n(-c2ccc(S(N)(=O)=O)cc2)c1C", "pEC50", "<", 4.52],
  ["Cc1c(C(=O)C2CC2)cc(-c2ccc(Cl)cc2)n1-c1ccc(S(N)(=O)=O)cc1", "pEC50", "=", 5.31]
]}

----------
- Assay: Plasma clearance in dog at 0.5 umol/kg, iv
- Type: ADME, organism-based, Canis lupus familiaris
Quantity: clearance (mL/min/kg)

{"columns": ["Chem smiles", "Measurement"],
 "data": [
  ["CCC(=O)c1cc(-c2ccc(Cl)cc2)n(-c2ccc(S(N)(=O)=O)cc2)c1C", 18.3]
]}

----------
- Assay: Oral bioavailability in monkey at 1 umol/kg
- Type: ADME, organism-based, Macaca mulatta
- Experimental context: rhesus monkey, in vivo
Quantity: bioavailability (%)

{"columns": ["Chem smiles", "Measurement"],
 "data": [
  ["CCC(=O)c1cc(-c2ccc(Cl)cc2)n(-c2ccc(S(N)(=O)=O)cc2)c1C", 68]
]}
